Target: ROCK1 (Homo sapiens (Human))
Test: FRET-based Z'-Lyte kinase assay, ROCK1
Type: biochemical
Settings: methanesulfonate; read-out: IC50 ± SD (μM) ROCK1
IC50 reference
Write it as a number; the unit µM goes unstated.

Please report the measured IC50 for O=C(NCc1cccc(O)c1)Nc1nc(-c2ccncc2)cs1 [Compound 1bo-Mes, methanesulfonate] tested on ROCK1 (Homo sapiens (Human)).
0.013

Next:
# lookup: ROCK1 (Homo sapiens (Human)) IC50, key = COc1cccc(CNC(=O)Nc2nc(-c3ccncc3)cs2)c1 [Compound 1af-Mes, methanesulfonate]
0.03

----------
Biological target: ROCK1 (Homo sapiens (Human), UniProt Q13464)
Sequence (Q13464 whole entry, species assumed): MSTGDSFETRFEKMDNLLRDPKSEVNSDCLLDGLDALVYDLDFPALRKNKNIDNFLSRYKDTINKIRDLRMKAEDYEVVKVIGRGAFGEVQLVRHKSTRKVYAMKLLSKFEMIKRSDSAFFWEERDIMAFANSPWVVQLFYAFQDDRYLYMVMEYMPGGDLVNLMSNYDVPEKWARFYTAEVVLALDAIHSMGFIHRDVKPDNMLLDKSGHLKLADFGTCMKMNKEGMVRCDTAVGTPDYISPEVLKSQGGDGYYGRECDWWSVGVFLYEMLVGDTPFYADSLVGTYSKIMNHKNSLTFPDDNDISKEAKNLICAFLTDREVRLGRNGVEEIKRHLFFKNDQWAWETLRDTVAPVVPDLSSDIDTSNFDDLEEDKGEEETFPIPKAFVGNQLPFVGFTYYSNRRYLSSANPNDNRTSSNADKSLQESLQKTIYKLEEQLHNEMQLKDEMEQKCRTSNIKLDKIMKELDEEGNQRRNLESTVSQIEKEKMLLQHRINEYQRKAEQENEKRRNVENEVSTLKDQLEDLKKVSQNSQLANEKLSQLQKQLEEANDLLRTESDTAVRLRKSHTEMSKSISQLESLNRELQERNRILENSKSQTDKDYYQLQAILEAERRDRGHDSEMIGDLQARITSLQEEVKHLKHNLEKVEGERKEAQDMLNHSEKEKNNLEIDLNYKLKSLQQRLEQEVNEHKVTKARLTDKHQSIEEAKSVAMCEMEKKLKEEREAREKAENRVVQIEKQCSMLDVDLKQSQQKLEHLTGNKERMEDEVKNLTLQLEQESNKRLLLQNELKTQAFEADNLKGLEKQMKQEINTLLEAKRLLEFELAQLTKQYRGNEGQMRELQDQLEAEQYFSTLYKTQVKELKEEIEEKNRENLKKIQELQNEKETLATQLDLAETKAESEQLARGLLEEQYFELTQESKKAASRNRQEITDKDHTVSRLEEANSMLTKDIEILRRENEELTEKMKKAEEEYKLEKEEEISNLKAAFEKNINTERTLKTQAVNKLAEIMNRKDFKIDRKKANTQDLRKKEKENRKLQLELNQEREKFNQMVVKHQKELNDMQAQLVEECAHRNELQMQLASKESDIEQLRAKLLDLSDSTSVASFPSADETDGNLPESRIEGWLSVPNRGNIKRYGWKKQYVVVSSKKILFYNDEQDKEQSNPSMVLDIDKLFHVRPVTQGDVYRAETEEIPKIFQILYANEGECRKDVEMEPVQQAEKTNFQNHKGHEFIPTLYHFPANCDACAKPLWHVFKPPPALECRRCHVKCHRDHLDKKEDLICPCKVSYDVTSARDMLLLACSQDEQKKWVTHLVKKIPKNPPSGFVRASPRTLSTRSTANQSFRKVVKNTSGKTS
Test: FRET-based Z'-Lyte kinase assay, ROCK1;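 also: kinase phosphorylates a coumarin/fluorescein-labelled FRET peptide, then a protease cleaves unphosphorylated peptide, progress read as donor to acceptor emission ratio after 400 nm excitation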
Assay type: biochemical
Conditions: read-out: ROCK1 % inhibition @ 50 μM; 50 μM compound
# if value of inhibition at 50 µM reaches 10%, tag condition met; if it stays below, tag condition not met

Dear colleague, could you confirm whether O=C(Nc1nc(-c2ccncc2)cs1)Nc1ccc(F)cc1F [Compound 6b] has inhibition at 50 µM at or above 10%?
condition met

Hello, I need to know if O=C(NCc1nc2ccccc2[nH]1)Nc1nc(-c2ccncc2)cs1 [Compound 1cs] has measured inhibition at 50 µM not below 10%. Thanks!
condition met

// inclusive: inhibition at 50 µM at least 10%? input: O=C(NCc1ccc([N+](=O)[O-])cc1)Nc1nc(-c2ccncc2)cs1 [Compound 1az]
condition met

Determine whether this molecule has inhibition at 50 µM no lower than 10%: O=C(NCc1cccc(OC(F)(F)F)c1)Nc1nc(-c2ccncc2)cs1 [Compound 1br]
condition not met

hey, is inhibition at 50 µM for this one >= 10%? COc1ccc([C@H](C)NC(=O)Nc2nc(-c3ccncc3)cs2)cc1 [Compound 1by]
condition not met

Does inhibition at 50 µM meet or surpass 10% for COc1ccc(CNC(=O)Nc2nc(-c3ccncc3)cs2)cc1 [Compound 1am] ?
condition not met

Kindly determine if inhibition at 50 µM recorded for O=C(Nc1nc(-c2ccncc2)cs1)N1CCN(CC2CCCO2)CC1 (stereo not drawn) [Compound 12f] is above or exactly 10%.
condition not met

Continuing:
Please tell me: is the molecule O=C(Nc1nc(-c2ccncc2)cs1)Nc1ccccc1F [Compound 6d] at or over 10% in terms of inhibition at 50 µM?
condition met
